Below: a set of entries, each annotated with reported lowest phenotypically active concentration.
Tested on: HepG2-GM130-SQSTM1
Experiment: lowest phenotypically active concentration; higher = less potent
Conditions: treatment time: 24 h
Structures can show the parent of a compound that is named as a salt.

Past entries and their recorded results:
{"molecule": "C[C@@H](Oc1cc(-n2cnc3ccc(CN4CCN(C)CC4)cc32)sc1C(N)=O)c1ccccc1C(F)(F)F", "value.observed": "≤ 0.3 µM"}
{"molecule": "C=CC(=O)Nc1cccc(CN2C(=O)N(c3c(Cl)c(OC)cc(OC)c3Cl)Cc3cnc(NCCCCN(CC)CC)nc32)c1 [FIIN 1 hydrochloride]", "value.observed": "≤ 0.3 µM"}

Switching to the query record.
Notebook: O=C(Cc1ccc(-c2ccc(OCCN3CCOCC3)cc2)cn1)NCc1ccccc1 , lowest phenotypically active concentration read as ≤ 0.3 µM

###

Test system: HepG2-TP53BP1-CLTA
Assay: phenotypically active (imaging signature differs from DMSO and reproducible) at any of 0.3-9 uM (binary (1 = active, 0 = inactive)); higher = active
Settings: treatment time: 24 h
property.measured: phenotypically active
Enter the number alone.

Past entries and their recorded results:
{"molecule": "COC(=O)C1=C(C)NC(C)=C(C(=O)OC)C1c1ccccc1[N+](=O)[O-]", "phenotypically active": 0}
{"molecule": "O=C(O)c1cc(=O)c(O)c(C(=O)O)o1", "phenotypically active": 0}
{"molecule": "COc1cc(O)cc(O)c1C(=O)/C=C/c1ccccc1", "phenotypically active": 0}
{"molecule": "CC(C)n1nc(-c2cc3cc(O)ccc3[nH]2)c2c(N)ncnc21", "phenotypically active": 1}
{"molecule": "COc1cc2ncnc(Nc3ccc(O)c(Br)c3)c2cc1OC", "phenotypically active": 1}

// molecule CC(C)[N@+]1(C)[C@@H]2CC[C@H]1C[C@@H](OC(=O)C(CO)c1ccccc1)C2 (stereo partly specified) , assay HepG2-TP53BP1-CLTA, phenotypically active value: 0

// molecule CC1CCC(C(C)C)C(O)C1 (stereo unspecified) , assay HepG2-TP53BP1-CLTA, phenotypically active value: 0

// molecule COc1cc(OC)c2c(=O)[nH]c(-c3cc(C)c(OCCO)c(C)c3)nc2c1 , assay HepG2-TP53BP1-CLTA, phenotypically active value: 0

// molecule CC(COc1ccccc1)N(CCCl)Cc1ccccc1 (stereo unspecified) , assay HepG2-TP53BP1-CLTA, phenotypically active value: 0

// molecule COc1ccc(-c2ccc3cc(C(=O)O)ccc3c2)cc1C12CC3CC(CC(C3)C1)C2 , assay HepG2-TP53BP1-CLTA, phenotypically active value: 0

// molecule Cc1cc(C(=O)NNCc2ccccc2)no1 , assay HepG2-TP53BP1-CLTA, phenotypically active value: 0

// molecule CCOC(=O)c1ccc(N2NC(=O)/C(=C/c3ccc([N+](=O)[O-])o3)C2=O)cc1 , assay HepG2-TP53BP1-CLTA, phenotypically active value: 0

// molecule CCC1(c2ccccc2)NC(=O)N(C)C1=O (stereo unspecified) , assay HepG2-TP53BP1-CLTA, phenotypically active value: 0

// molecule CNC(=O)c1cc(Oc2ccc(NC(=O)Nc3ccc(Cl)c(C(F)(F)F)c3)cc2)ccn1 , assay HepG2-TP53BP1-CLTA, phenotypically active value: 1

// molecule Clc1ccccc1C(c1ccccc1)(c1ccccc1)n1ccnc1 , assay HepG2-TP53BP1-CLTA, phenotypically active value: 0

// molecule CC(C)OC(=O)C(C)(C)Oc1ccc(C(=O)c2ccc(Cl)cc2)cc1 [Fenofibrate] , assay HepG2-TP53BP1-CLTA, phenotypically active value: 0

###

System: A549-TP53BP1-CLTA
Experiment: phenotypically active (imaging signature differs from DMSO and reproducible) at any of 0.3-9 uM (binary (1 = active, 0 = inactive)); higher = active
Conditions: treatment time: 24 h
property.measured: phenotypically active
Enter the number alone.

Past entries and their recorded results:
{"compound": "CC1(C)O[C@@H]2C[C@H]3[C@@H]4C[C@H](F)C5=CC(=O)C=C[C@]5(C)[C@@]4(F)[C@@H](O)C[C@]3(C)[C@]2(C(=O)CO)O1 [fluocinolone acetonide]", "property.measured": "phenotypically active", "value.observed": 1}
{"compound": "CC1(C)CCC(C)(C)c2cc(C3(c4ccc(C(=O)O)cc4)OCCO3)ccc21", "property.measured": "phenotypically active", "value.observed": 0}
{"compound": "COc1ccc(C(=O)Nc2sc3c(c2C(N)=O)CCCC3)cc1OC", "property.measured": "phenotypically active", "value.observed": 0}
{"compound": "CC(C)(C(=O)O)c1ccc(C(O)CCCN2CCC(C(O)(c3ccccc3)c3ccccc3)CC2)cc1 (centres undefined) [fexofenadine]", "property.measured": "phenotypically active", "value.observed": 0}
{"compound": "C[N+](C)(C)CCOC(N)=O [Carbamoylcholine chloride]", "property.measured": "phenotypically active", "value.observed": 0}
{"compound": "Oc1cc(O)c2c(c1)O[C@H](c1ccc(O)c(O)c1)[C@@H](O)C2 [Epicatechin-(-)]", "property.measured": "phenotypically active", "value.observed": 0}

Notebook: COc1c(C)cnc(Cn2cc(C#CCC(C)(C)O)c3c(Cl)nc(N)nc32)c1C , phenotypically active read as 1

Notebook: CC(=O)[C@H]1CC[C@H]2[C@@H]3CCC4=CC(=O)CC[C@]4(C)[C@H]3CC[C@]12C , phenotypically active read as 0

Notebook: COCC(=O)O[C@]1(CCN(C)CCCc2nc3ccccc3[nH]2)CCc2cc(F)ccc2[C@@H]1C(C)C , phenotypically active read as 1

###

Tested on: HepG2-CANX-COX4
Experiment: phenotypically active (imaging signature differs from DMSO and reproducible) at any of 0.3-9 uM (binary (1 = active, 0 = inactive)); higher = active
Details: treatment time: 24 h
property.measured: phenotypically active
Enter the number alone.

{"compound": "O=C(CCCCSc1nc(-c2ccc(-c3ccccc3)cc2)cc(=O)[nH]1)NO", "system": "HepG2-CANX-COX4", "phenotypically active": 1}

Notebook: c1ccc(CN(CC2=NCCN2)c2ccccc2)cc1 , phenotypically active read as 0

Notebook: COc1cc(O)c2c(c1C1CCCN1)OC(c1ccc(O)cc1)CC2 (stereo not drawn) [Vochysine (4 dia/énantio)] , phenotypically active read as 0

###

Below: a set of entries, each annotated with reported phenotypically active.
System: WPMY1-TP53BP1-CLTA
Assay: phenotypically active (imaging signature differs from DMSO and reproducible) at any of 0.3-9 uM (binary (1 = active, 0 = inactive)); higher = active
Settings: treatment time: 24 h
Enter the number alone.

Past entries and their recorded results:
{"molecule": "Cc1c(O)cccc1C(=O)N[C@@H](CSc1ccccc1)[C@H](O)CN1C[C@H]2CCCC[C@H]2C[C@H]1C(=O)NC(C)(C)C [nelfinavir]", "value.observed": 0}
{"molecule": "O=c1c(O)c(-c2ccc(O)c(O)c2)oc2cc(O)cc(O)c12 [Quercetin]", "value.observed": 0}
{"molecule": "Nc1cc(N)c(N)cc1N [FAK Inhibitor 14]", "value.observed": 1}

Switching to the query record.
Notebook: Fc1ccc([C@@H]2CCNC[C@H]2COc2ccc3c(c2)OCO3)cc1 [paroxetine] , phenotypically active read as 1

###

System: WPMY1-CANX-COX4
Assay: phenotypically active (imaging signature differs from DMSO and reproducible) at any of 0.3-9 uM (binary (1 = active, 0 = inactive)); higher = active
Settings: treatment time: 24 h
property.measured: phenotypically active
Enter the number alone.

Past entries and their recorded results:
{"molecule": "CC(C(=O)O)c1cccc(C(=O)c2ccccc2)c1 (centres undefined)", "phenotypically active": 0}
{"molecule": "CCOC(=O)c1c2c3c(cccc3[nH]c1=O)C(=O)c1ccccc1-2", "phenotypically active": 0}
{"molecule": "COCc1c(C(C)C)nc(C(C)C)c(/C=C/[C@@H](O)C[C@@H](O)CC(=O)O)c1-c1ccc(F)cc1", "phenotypically active": 1}
{"molecule": "Oc1ccc(-c2nc(-c3ccc(F)cc3)c(-c3ccncc3)[nH]2)cc1", "phenotypically active": 1}
{"molecule": "O=C1NC(=O)C(c2ccccc2)(c2ccccc2)N1", "phenotypically active": 0}

Notebook: CC(C)C(=O)Nc1ccc([N+](=O)[O-])c(C(F)(F)F)c1 [flutamide] , phenotypically active read as 0

Notebook: CN1CCCC(n2nc(Cc3ccc(Cl)cc3)c3ccccc3c2=O)CC1 (centres undefined) , phenotypically active read as 1

Notebook: CCC(=O)N1CCN(c2ccc(-n3c(=O)ccc4cnc5ccc(-c6cnc7ccccc7c6)cc5c43)cc2C(F)(F)F)CC1 , phenotypically active read as 1

Notebook: COc1cc(C=O)c([N+](=O)[O-])cc1OC , phenotypically active read as 0

###

Test system: HepG2-TUBA1B-RELA
Assay: lowest phenotypically active concentration; higher = less potent
Details: treatment time: 24 h
property.measured: lowest phenotypically active concentration

Past entries and their recorded results:
{"structure.notation": "CN(C)c1ccc(C(=O)NCCCCCCC(=O)NO)cc1", "value.observed": "≤ 0.3 µM"}
{"structure.notation": "CC(C)N(CCCNC(=O)Nc1ccc(C(C)(C)C)cc1)C[C@H]1O[C@@H](n2ccc3c(N)ncnc32)[C@H](O)[C@@H]1O", "value.observed": "≤ 0.3 µM"}

Switching to the query record.
Notebook: COc1cc2c(NC3CCN(C(C)C)CC3)nc(N3CCC(F)(F)CC3)nc2cc1OCCCN1CCCC1 , lowest phenotypically active concentration read as ≤ 0.3 µM

# credit: the supplement of paper PMC7411054
